Details: in acetonitrile, 283.15 K
ENDPOINT LABEL: solubility (mole fraction)

- O=[N+]([O-])c1ncccc1O: 0.141

---

Settings: in n-hexane, 313.15 K
ENDPOINT LABEL: solubility (mole fraction)

• O=[N+]([O-])c1ncccc1O = 0.00522

---

Settings: in acetone, 293.15 K
ENDPOINT LABEL: solubility (mole fraction)

- O=[N+]([O-])c1ncccc1O: 0.259

---

Conditions: in ethyl acetate, 318.15 K
ENDPOINT LABEL: solubility (mole fraction)

- O=[N+]([O-])c1ncccc1O: 0.423

---

Details: in ethanol, 303.15 K
ENDPOINT LABEL: solubility (mole fraction)

• O=[N+]([O-])c1ncccc1O = 0.128

---

Details: in ethyl acetate, 313.15 K
ENDPOINT LABEL: solubility (mole fraction)

- O=[N+]([O-])c1ncccc1O: 0.357

---

Conditions: in isopropanol, 278.15 K
ENDPOINT LABEL: solubility (mole fraction)

• O=[N+]([O-])c1ncccc1O = 0.0158

---

Details: in n-propanol, 308.15 K
ENDPOINT LABEL: solubility (mole fraction)

* O=[N+]([O-])c1ncccc1O | 0.17

---

Settings: in ethanol, 308.15 K
ENDPOINT LABEL: solubility (mole fraction)

• O=[N+]([O-])c1ncccc1O = 0.173

---

Conditions: in ethanol, 293.15 K
ENDPOINT LABEL: solubility (mole fraction)

* O=[N+]([O-])c1ncccc1O | 0.0653

---

Conditions: in methanol, 283.15 K
ENDPOINT LABEL: solubility (mole fraction)

- O=[N+]([O-])c1ncccc1O: 0.0551

---

Conditions: in ethyl acetate, 308.15 K
ENDPOINT LABEL: solubility (mole fraction)

- O=[N+]([O-])c1ncccc1O: 0.301

---

Settings: in methanol, 303.15 K
ENDPOINT LABEL: solubility (mole fraction)

- O=[N+]([O-])c1ncccc1O: 0.206

---

Conditions: in THF, 278.15 K
ENDPOINT LABEL: solubility (mole fraction)

• O=[N+]([O-])c1ncccc1O = 0.213

---

Details: in acetonitrile, 278.15 K
ENDPOINT LABEL: solubility (mole fraction)

- O=[N+]([O-])c1ncccc1O: 0.113

---

Conditions: in n-propanol, 283.15 K
ENDPOINT LABEL: solubility (mole fraction)

• O=[N+]([O-])c1ncccc1O = 0.0391

---

Conditions: in ethanol, 318.15 K
ENDPOINT LABEL: solubility (mole fraction)

- O=[N+]([O-])c1ncccc1O: 0.306

---

Details: in n-hexane, 293.15 K
ENDPOINT LABEL: solubility (mole fraction)

* O=[N+]([O-])c1ncccc1O | 0.00144

---

Settings: in acetone, 318.15 K
ENDPOINT LABEL: solubility (mole fraction)

- O=[N+]([O-])c1ncccc1O: 0.544

---

Conditions: in acetonitrile, 288.15 K
ENDPOINT LABEL: solubility (mole fraction)

* O=[N+]([O-])c1ncccc1O | 0.171

---

Conditions: in methanol, 298.15 K
ENDPOINT LABEL: solubility (mole fraction)

• O=[N+]([O-])c1ncccc1O = 0.153

---

Settings: in water, 293.15 K
ENDPOINT LABEL: solubility (mole fraction)

• O=[N+]([O-])c1ncccc1O = 0.0021

---

Settings: in acetone, 308.15 K
ENDPOINT LABEL: solubility (mole fraction)

- O=[N+]([O-])c1ncccc1O: 0.41

---

Settings: in acetone, 298.15 K
ENDPOINT LABEL: solubility (mole fraction)

• O=[N+]([O-])c1ncccc1O = 0.304

---

Conditions: in n-propanol, 313.15 K
ENDPOINT LABEL: solubility (mole fraction)

• O=[N+]([O-])c1ncccc1O = 0.224

---

Settings: in acetone, 313.15 K
ENDPOINT LABEL: solubility (mole fraction)

• O=[N+]([O-])c1ncccc1O = 0.474

---

Details: in isopropanol, 283.15 K
ENDPOINT LABEL: solubility (mole fraction)

- O=[N+]([O-])c1ncccc1O: 0.0226

---

Details: in THF, 318.15 K
ENDPOINT LABEL: solubility (mole fraction)

- O=[N+]([O-])c1ncccc1O: 0.57

---

Conditions: in n-propanol, 318.15 K
ENDPOINT LABEL: solubility (mole fraction)

• O=[N+]([O-])c1ncccc1O = 0.292

---

Conditions: in ethyl acetate, 303.15 K
ENDPOINT LABEL: solubility (mole fraction)

- O=[N+]([O-])c1ncccc1O: 0.254

---

Details: in methanol, 293.15 K
ENDPOINT LABEL: solubility (mole fraction)

* O=[N+]([O-])c1ncccc1O | 0.111

---

Details: in n-propanol, 288.15 K
ENDPOINT LABEL: solubility (mole fraction)

* O=[N+]([O-])c1ncccc1O | 0.0523

---

Settings: in water, 313.15 K
ENDPOINT LABEL: solubility (mole fraction)

• O=[N+]([O-])c1ncccc1O = 0.00753

---

Details: in acetonitrile, 313.15 K
ENDPOINT LABEL: solubility (mole fraction)

• O=[N+]([O-])c1ncccc1O = 0.428

---

Settings: in methanol, 278.15 K
ENDPOINT LABEL: solubility (mole fraction)

• O=[N+]([O-])c1ncccc1O = 0.0395

---

Conditions: in n-propanol, 278.15 K
ENDPOINT LABEL: solubility (mole fraction)

- O=[N+]([O-])c1ncccc1O: 0.0299

---

Details: in THF, 308.15 K
ENDPOINT LABEL: solubility (mole fraction)

- O=[N+]([O-])c1ncccc1O: 0.446

---

Details: in water, 283.15 K
ENDPOINT LABEL: solubility (mole fraction)

• O=[N+]([O-])c1ncccc1O = 0.00107

---

Settings: in n-hexane, 278.15 K
ENDPOINT LABEL: solubility (mole fraction)

• O=[N+]([O-])c1ncccc1O = 0.00055

---

Details: in THF, 288.15 K
ENDPOINT LABEL: solubility (mole fraction)

- O=[N+]([O-])c1ncccc1O: 0.274

---

Details: in n-hexane, 303.15 K
ENDPOINT LABEL: solubility (mole fraction)

* O=[N+]([O-])c1ncccc1O | 0.00266

---

Conditions: in isopropanol, 318.15 K
ENDPOINT LABEL: solubility (mole fraction)

• O=[N+]([O-])c1ncccc1O = 0.224

---

Details: in acetone, 303.15 K
ENDPOINT LABEL: solubility (mole fraction)

• O=[N+]([O-])c1ncccc1O = 0.354

---

Conditions: in acetonitrile, 298.15 K
ENDPOINT LABEL: solubility (mole fraction)

- O=[N+]([O-])c1ncccc1O: 0.247

---

Conditions: in acetonitrile, 303.15 K
ENDPOINT LABEL: solubility (mole fraction)

* O=[N+]([O-])c1ncccc1O | 0.299

---

Settings: in water, 318.15 K
ENDPOINT LABEL: solubility (mole fraction)

• O=[N+]([O-])c1ncccc1O = 0.0109

---

Conditions: in n-hexane, 298.15 K
ENDPOINT LABEL: solubility (mole fraction)

* O=[N+]([O-])c1ncccc1O | 0.00192

---

Settings: in ethyl acetate, 298.15 K
ENDPOINT LABEL: solubility (mole fraction)

• O=[N+]([O-])c1ncccc1O = 0.215

---

Details: in ethanol, 298.15 K
ENDPOINT LABEL: solubility (mole fraction)

- O=[N+]([O-])c1ncccc1O: 0.0924

---

Settings: in isopropanol, 308.15 K
ENDPOINT LABEL: solubility (mole fraction)

- O=[N+]([O-])c1ncccc1O: 0.12

---

Details: in n-hexane, 288.15 K
ENDPOINT LABEL: solubility (mole fraction)

* O=[N+]([O-])c1ncccc1O | 0.00105

---

Conditions: in isopropanol, 303.15 K
ENDPOINT LABEL: solubility (mole fraction)

• O=[N+]([O-])c1ncccc1O = 0.0863

---

Conditions: in ethyl acetate, 293.15 K
ENDPOINT LABEL: solubility (mole fraction)

• O=[N+]([O-])c1ncccc1O = 0.181

---

Details: in n-hexane, 283.15 K
ENDPOINT LABEL: solubility (mole fraction)

* O=[N+]([O-])c1ncccc1O | 0.00077

---

Details: in ethanol, 278.15 K
ENDPOINT LABEL: solubility (mole fraction)

- O=[N+]([O-])c1ncccc1O: 0.0236

---

Details: in water, 278.15 K
ENDPOINT LABEL: solubility (mole fraction)

* O=[N+]([O-])c1ncccc1O | 0.00083

---

Settings: in acetone, 278.15 K
ENDPOINT LABEL: solubility (mole fraction)

- O=[N+]([O-])c1ncccc1O: 0.157
